Experiment: Apparent clearance with respect to bioavailability in po dosed human at 200 mg daily for 3 days followed by weekly dose of 200 mg for 6 months
Type: ADME, organism-based
Details: in vivo
attribute_measured: CL/F (mL/min)
// units = mL/min; emit number, no label

Quick check: CL/F of COc1cc(C)c2c(Oc3cccc(C(F)(F)F)c3)c(OC)cc(NC(C)CCCN)c2n1 (stereo unspecified) [TAFENOQUINE] ?
72.8

###

Assay: Apparent clearance with respect to the bioavailability po dosed human receiving 400 mg cumulative dose and reporting drug-associated diarrhea and/or abdominal pain on day 2 at 200 mg daily for 3 days followed by weekly dose of 200 mg for 6 months
Format: ADME, organism-based, Abdomen
Settings: in vivo
attribute_measured: CL/F (L/h/kg)
Write down the numeric answer in L/h/kg and omit the unit.

Recorded CL/F for COc1cc(C)c2c(Oc3cccc(C(F)(F)F)c3)c(OC)cc(NC(C)CCCN)c2n1 (stereo unspecified) , please?
0.059

Where do these numbers come from? They come from ChEMBL document CHEMBL1155159.
